B1: KCNK9 (parent)
chain: CFITLTTIGFGDYVALQTKGALQK

- Variants of: B1
- test-description: protein stability index of a GFP-peptide fusion (GPS, HEK-293T) (PSI 1-6); higher = more stable;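 note: lentivirally expressed fusions sorted by FACS into six bins by GFP to DsRed ratio, PSI derived from sequencing read proportions per bin multiplied by bin number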
- condition-summary: c terminus: a fixed tail appended
Would you mind labelling by protein stability index? At or over 3 is Criterion met, under is Criterion not met.

Reference set (10 entries):
variant_notation=Q17N class="Criterion not met"
variant_notation=K19F class="Criterion not met"
variant_notation=L16C class="Criterion not met"
variant_notation=T6D class="Criterion not met"
variant_notation=Q23L class="Criterion met"
variant_notation=A21Q class="Criterion not met"
variant_notation=F10K class="Criterion not met"
variant_notation=L16I class="Criterion not met"
variant_notation=L22Y class="Criterion not met"
variant_notation=F2K class="Criterion not met"

In plain terms: is recorded protein stability index at least 3 for L22F ?
Criterion not met

In plain terms: is recorded protein stability index at least 3 for V14M ?
Criterion not met

In plain terms: is recorded protein stability index at least 3 for C1N ?
Criterion not met

In plain terms: is recorded protein stability index at least 3 for I3G ?
Criterion not met

In plain terms: is recorded protein stability index at least 3 for A15F ?
Criterion not met

In plain terms: is recorded protein stability index at least 3 for T7F ?
Criterion met

In plain terms: is recorded protein stability index at least 3 for T4K ?
Criterion met

In plain terms: is recorded protein stability index at least 3 for T6V ?
Criterion met

In plain terms: is recorded protein stability index at least 3 for A15C ?
Criterion met

In plain terms: is recorded protein stability index at least 3 for T7Y ?
Criterion not met

In plain terms: is recorded protein stability index at least 3 for F2L ?
Criterion met

In plain terms: is recorded protein stability index at least 3 for G11Y ?
Criterion met

In plain terms: is recorded protein stability index at least 3 for I3C ?
Criterion not met

In plain terms: is recorded protein stability index at least 3 for C1Q ?
Criterion not met

In plain terms: is recorded protein stability index at least 3 for F10W ?
Criterion not met

In plain terms: is recorded protein stability index at least 3 for Y13G ?
Criterion not met

In plain terms: is recorded protein stability index at least 3 for T18A ?
Criterion not met

In plain terms: is recorded protein stability index at least 3 for T7W ?
Criterion met

In plain terms: is recorded protein stability index at least 3 for F10R ?
Criterion not met

In plain terms: is recorded protein stability index at least 3 for Q23N ?
Criterion not met

In plain terms: is recorded protein stability index at least 3 for Q17H ?
Criterion met

In plain terms: is recorded protein stability index at least 3 for F10Q ?
Criterion not met

In plain terms: is recorded protein stability index at least 3 for G9P ?
Criterion not met

In plain terms: is recorded protein stability index at least 3 for K19G ?
Criterion not met
